Values compiled from PubChem BioAssay AID449750.

# Assay Text: non-covalent RecA intein splicing inhibitors, dose response, biochemical, cell-free, fluorescence, secondary screen (AID 449750)
Calls of active or inactive are those of the source. The rule behind the calls is not given here.
Labels: active, inactive

# Compound, Label Class
data = [
    ("CC1(C)C=C2C(=NN(c3ccccc3)C(N)=C2C#N)CO1", "active"),
    ("COc1ccc(NC(=O)Cn2ncc(Cl)c(Cl)c2=O)cc1S(=O)(=O)N1CCOCC1", "inactive"),
    ("Cc1cc(C)c(C(CC(=O)c2cccs2)C(C#N)C#N)c(C)c1 (stereo unspecified)", "active"),
    ("Cc1cc(-c2[nH]nc3c2C(c2ccc(Cl)cc2)C(C#N)=C(N)O3)c(C)s1 (stereo unspecified)", "active"),
    ("Cn1cnc([N+](=O)[O-])c1Oc1ccc2ccccc2c1", "inactive"),
    ("CCOC(=O)c1cc2cc3ccccc3cc2[nH]1", "inactive"),
    ("CCOC1(OCC)C(c2ccc(Cl)cc2)C(C#N)(C#N)C1(OCC)OCC (stereo unspecified)", "inactive"),
    ("COC(=O)c1cc(NC(=O)Nc2ccccc2OC)cc(C(=O)OC)c1", "inactive"),
    ("COC(=O)CCS(=O)(=O)c1nc(-c2ccccc2)cc(C(F)(F)F)n1", "inactive"),
    ("CN(N)C(=S)Nc1ccc(Cl)cc1", "inactive"),
    ("Cc1ccc(SCc2[nH]nc3c2C(c2ccc(C)o2)C(C#N)=C(N)O3)cc1 (stereo unspecified)", "inactive"),
]

====

# Assay Text: non-covalent RecA intein splicing inhibitors, dose response, biochemical, cell-free, fluorescence, secondary screen (AID 449750)
The source made the active and inactive calls. No rule for the calls is given here.
Outcomes: yes (1) for active, no (0) for inactive

# Compound, Label Class
measured = [
    ("COc1ccc(N2C(=O)CC(N(CCc3ccccc3)C(=O)/C=C/C(=O)O)C2=O)cc1 (stereo not given)", "no (0)"),
    ("CNc1ccc2nc3ccccc3[n+](C)c2c1", "yes (1)"),
    ("O=C1/C(=C/c2ccc3c(c2)OCO3)CCC/C1=C\\c1ccc2c(c1)OCO2", "no (0)"),
    ("CCN(CC)C(=O)c1ccc2c(c1)C1C(Cl)C(Sc3ccccc3[N+](=O)[O-])CC1C(C(=O)O)N2 (stereo not given)", "yes (1)"),
    ("CC(C)(C)c1ccc(S(=O)(=O)/N=C2\\C=C(NS(=O)(=O)c3ccccc3)C(=O)c3ccccc32)cc1", "yes (1)"),
    ("Cc1oc2c(c1C(=O)NCc1cccnc1)C(=O)c1ccccc1C2=O", "yes (1)"),
    ("O=[N+]([O-])c1c(NCCCO)cc(SCc2ccco2)c2nonc12", "no (0)"),
    ("CC1=NN(C)C(=O)C1Cc1c(F)cccc1Cl (stereo not given)", "no (0)"),
    ("O=C(Oc1ccc(N2C(=O)C3C4CCC(C4)C3C2=O)cc1)c1ccco1 (stereo not given)", "no (0)"),
    ("CC1=NNC(=O)C1Cc1ccccc1C (stereo not given)", "no (0)"),
]

====

# Assay Text: non-covalent RecA intein splicing inhibitors, dose response, biochemical, cell-free, fluorescence, secondary screen (AID 449750)
Active and inactive are the calls of the source. The rule behind the calls is not given here.
Labels: active, inactive

# Compound, Label Class
measured = [
    ("O=C1C(Cl)=C(N2CCOCC2)C(=O)N1c1ccccc1F", "inactive"),
    ("CCCn1c(CC)nc([N+](=O)[O-])c1S(=O)(=O)c1ccccc1", "inactive"),
    ("CC(=O)c1cc(O)c2ccccc2c1O", "active"),
    ("O=C(NC1CCCCC1)C(c1cccnc1)N(C(=O)CCl)c1ccc(F)cc1 (stereo unspecified)", "active"),
    ("Cc1ccc(-n2nc(C)c3c2OC(N)=C(C#N)C3c2ccc(F)cc2)cc1 (stereo unspecified)", "active"),
    ("CCCc1[nH]nc2c1C(c1ccc(OCCN3CCOCC3)c(OC)c1)C(C#N)=C(N)O2 (stereo unspecified)", "inactive"),
    ("Cc1ccc(CNC(=O)c2ccc(N(C)S(=O)(=O)c3ccccc3)cc2)cc1", "inactive"),
    ("COc1cc(C2C(C#N)=C(N)Oc3c2c(-c2ccccc2)nn3-c2ccccc2)cc(OC)c1OC (stereo unspecified)", "active"),
    ("O=C1C=C(N2CCCCC2)c2ccccc2C1=O", "active"),
    ("O=C(CSc1nnc(Cc2ccccc2)o1)Nc1cccc(F)c1", "inactive"),
    ("CC(C)C[C@H](N)c1nnc(S(=O)(=O)Cc2ccc(F)cc2)o1", "inactive"),
]
